The reported numbers originate from patent US20260000692A1.

# Test System: UniProt:Q9NYV4
# Sequence (Q9NYV4 whole entry): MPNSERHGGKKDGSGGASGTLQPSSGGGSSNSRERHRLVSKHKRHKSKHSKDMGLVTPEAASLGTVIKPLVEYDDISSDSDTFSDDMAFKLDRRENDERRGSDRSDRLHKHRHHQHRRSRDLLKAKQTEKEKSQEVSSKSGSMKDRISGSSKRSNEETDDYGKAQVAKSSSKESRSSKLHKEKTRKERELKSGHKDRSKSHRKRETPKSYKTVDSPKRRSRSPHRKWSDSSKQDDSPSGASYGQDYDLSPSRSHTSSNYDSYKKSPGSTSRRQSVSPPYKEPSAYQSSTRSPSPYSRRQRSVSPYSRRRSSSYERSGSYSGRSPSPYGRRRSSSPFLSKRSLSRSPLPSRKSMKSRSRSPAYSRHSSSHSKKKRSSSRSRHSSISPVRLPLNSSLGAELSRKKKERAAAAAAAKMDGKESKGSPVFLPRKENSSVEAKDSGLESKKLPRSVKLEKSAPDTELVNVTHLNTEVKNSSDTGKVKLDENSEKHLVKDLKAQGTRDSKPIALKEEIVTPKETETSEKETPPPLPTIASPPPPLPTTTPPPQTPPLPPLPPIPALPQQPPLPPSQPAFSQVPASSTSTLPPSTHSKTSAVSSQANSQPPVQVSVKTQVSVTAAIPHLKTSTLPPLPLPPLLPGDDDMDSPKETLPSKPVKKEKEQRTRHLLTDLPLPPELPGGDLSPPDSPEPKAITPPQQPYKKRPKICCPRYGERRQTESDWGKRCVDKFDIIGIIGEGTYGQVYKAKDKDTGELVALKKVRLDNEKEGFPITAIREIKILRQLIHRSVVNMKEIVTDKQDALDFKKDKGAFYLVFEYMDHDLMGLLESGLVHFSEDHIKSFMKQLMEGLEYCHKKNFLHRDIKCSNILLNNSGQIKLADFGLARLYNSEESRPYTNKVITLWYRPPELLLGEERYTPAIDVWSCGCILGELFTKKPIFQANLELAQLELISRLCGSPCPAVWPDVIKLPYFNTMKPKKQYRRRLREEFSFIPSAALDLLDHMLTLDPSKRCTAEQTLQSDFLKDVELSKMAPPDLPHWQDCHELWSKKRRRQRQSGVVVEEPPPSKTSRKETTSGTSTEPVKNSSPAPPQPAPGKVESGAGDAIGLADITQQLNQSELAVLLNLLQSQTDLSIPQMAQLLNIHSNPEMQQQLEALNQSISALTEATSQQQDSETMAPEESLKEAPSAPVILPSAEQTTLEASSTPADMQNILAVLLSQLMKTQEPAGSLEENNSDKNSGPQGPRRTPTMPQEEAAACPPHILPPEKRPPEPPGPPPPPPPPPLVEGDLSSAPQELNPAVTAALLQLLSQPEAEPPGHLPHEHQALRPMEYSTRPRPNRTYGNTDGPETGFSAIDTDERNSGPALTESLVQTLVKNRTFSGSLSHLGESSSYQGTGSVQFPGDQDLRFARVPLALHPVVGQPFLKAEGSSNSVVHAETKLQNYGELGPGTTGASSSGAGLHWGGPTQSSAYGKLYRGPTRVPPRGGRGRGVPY
# Sequence (O75909 whole entry partner): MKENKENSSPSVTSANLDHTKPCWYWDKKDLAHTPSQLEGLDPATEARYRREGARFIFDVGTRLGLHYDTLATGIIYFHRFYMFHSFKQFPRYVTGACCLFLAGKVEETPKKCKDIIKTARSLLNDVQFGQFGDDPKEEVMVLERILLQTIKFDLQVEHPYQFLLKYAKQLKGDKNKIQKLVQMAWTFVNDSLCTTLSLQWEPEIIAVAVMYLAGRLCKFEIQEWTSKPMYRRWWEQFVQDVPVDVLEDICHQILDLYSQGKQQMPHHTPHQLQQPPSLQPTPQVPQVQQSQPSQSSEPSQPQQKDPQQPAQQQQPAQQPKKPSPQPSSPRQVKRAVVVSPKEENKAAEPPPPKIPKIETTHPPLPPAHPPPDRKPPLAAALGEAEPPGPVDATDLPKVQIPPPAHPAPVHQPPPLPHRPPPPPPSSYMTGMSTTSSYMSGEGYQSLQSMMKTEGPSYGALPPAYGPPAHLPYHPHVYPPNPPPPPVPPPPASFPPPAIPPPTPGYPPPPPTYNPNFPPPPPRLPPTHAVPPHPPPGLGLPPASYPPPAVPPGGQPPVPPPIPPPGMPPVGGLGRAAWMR
# Method Notes: Biochemical assay for CDK12 (LANCE TR-FRET, IC50 determination)
# Run Conditions: compound at 10 μM; read-out: CDK12 % Inhibition @ 10 μM
# Procedure: Biochemical Assay for CDK12 (IC50 Determination): The inhibitory activity of the test compounds was assessed by the LANCE TR-FRET assay, which detects the ATP-dependent phosphorylation of an ULight-4E-BP1 (Thr37/Thr46) substrate peptide (100 nM) by CDK12 (30 nM). […] Time-resolved fluorescence (excitation, 320 nm; emission donor, 615 nm; emission acceptor, 665 nm) was monitored by using 2030 multilabel reader Victor5 (PerkinElmer). […]
Some molecules, each annotated with its measured inhibition at 10 µM.
Measured Parameter: inhibition at 10 µM (%)

COc1cc(NC(=O)Cc2cnc(C3CCN(C#N)CC3)c(OC)c2)ncc1Cl: 82
CC1(C)CC(Oc2cc(NC(=O)Cc3ccc(C4=CCN(C#N)CC4)nc3)ncc2Cl)CCN1 (stereo not drawn): 95
N#CN1CCC=C(c2ccc(CC(=O)Nc3cc(O[C@H]4CCOC4)c(Cl)cn3)cn2)C1: 96
N#CN1CC=C(c2ccc(CC(=O)Nc3cc(C4(O)COC4)c(Cl)cn3)cn2)CC1: 92
CNC(=O)C(C)Oc1cc(NC(=O)Cc2ccc(C3=CCN(C#N)CC3)nc2)ncc1Cl (stereo not drawn) [Compound 1]: 92
CN(C)c1cc(NC(=O)Cc2ccc(C3=CCCN(C#N)C3)nc2)ncc1Cl: 89
CNC(=O)C(C)Oc1cc(NC(=O)Cc2ccc(C3CCCN(C#N)C3)nc2)ncc1Cl (single isomer, unassigned) [Compound 86]: 84
COc1cc(NC(=O)Cc2ccc(-c3cccc(C#N)c3)nc2)ncc1Cl: 82
CC(CN(C)C)Oc1cc(NC(=O)Cc2ccc(C3=CCN(C#N)CC3)nc2)ncc1Cl (stereo not drawn): 89
COc1cc(NC(=O)Cc2ccc(C3=CC4CCC3CN4C#N)nc2)ncc1Cl (stereo not drawn): 87
COc1cc(C#N)nc(-c2ccc(CC(=O)Nc3cc(OC)c(Cl)cn3)cn2)c1: 72
COc1cc(NC(=O)Cc2ccc(-c3ccc(C#N)nc3)nc2)ncc1Cl: 83
COc1cc(NC(=O)Cc2ccc(C3=CC4CCC(C3)N4C#N)nc2)ncc1Cl (stereo not drawn): 87
COCCOc1cc(NC(=O)Cc2ccc(C3=CCN(C#N)CC3)nc2)ncc1Cl: 91
COc1cc(NC(=O)Cc2ccc(-c3cc(N4CCC(C)(O)CC4)cc(C#N)n3)nc2)ncc1Cl: 88
CN1CCC(Oc2cc(NC(=O)Cc3ccc(C4=CCCN(C#N)C4)nc3)ncc2Cl)CC1: 94
N#CN1CCC=C(c2ccc(CC(=O)Nc3ccccn3)cn2)C1: 87
CNC(=O)C(C)Oc1cc(NC(=O)Cc2ccc(C3=CCN(C#N)CC3)nc2)ncc1Cl (single isomer, unassigned) [Compound 3]: 84
Cc1ccc(NC(=O)Cc2ccc(C3=CCCN(C#N)C3)nc2)nc1: 79
CCOc1cc(NC(=O)Cc2ccc(C3=CCN(C#N)CC3)nc2)ncc1Cl: 109
COc1cc(NC(=O)Cc2ccc(-c3cnc(C#N)nc3)nc2)ncc1Cl: 92
COc1cc(NC(=O)Cc2cnc(C3=CCN(C#N)CC3)c(OC)c2)ncc1Cl: 89
COc1cc(NC(=O)Cc2ccc(C3=CCCN(C#N)C3)nc2)ncc1Cl: 91
COc1cc(NC(=O)Cc2ccc(-c3cc(O[C@H]4CCOC4)cc(C#N)n3)nc2)ncc1Cl: 89
N#CN1CCC(c2ccc(CC(=O)Nc3cc(O[C@@H]4CCOC4)c(Cl)cn3)cn2)CC1: 87
COc1cc(NC(=O)Cc2ccc(C3=CCN(C#N)CC3)nc2)ncc1Cl: 82
CN1CCCC1COc1cc(NC(=O)Cc2ccc(C3=CCN(C#N)CC3)nc2)ncc1Cl (stereo not drawn): 77
CNC(=O)C(C)Oc1cc(NC(=O)Cc2ccc(-c3ccc(C#N)nc3)nc2)ncc1Cl (stereo not drawn): 92
CC1CC(Oc2cc(NC(=O)Cc3ccc(C4=CCCN(C#N)C4)nc3)ncc2Cl)CCN1C (single isomer, unassigned) [Compound 64]: 92
N#CN1CCC=C(c2ccc(CC(=O)Nc3cc(OC4CCOCC4)c(Cl)cn3)cn2)C1: 89
CN1CC[C@H](Oc2cc(NC(=O)Cc3ccc(C4CCN(C#N)CC4)nc3)ncc2Cl)C1: 81
COc1cc(NC(=O)Cc2ccc(-c3cc(N4C[C@H]5CC[C@@H](C4)O5)cc(C#N)n3)nc2)ncc1Cl: 84
N#CN1CCC=C(c2ccc(CC(=O)Nc3ccc(F)cn3)cn2)C1: 98
